The entries below are paired with their reported pIC50.
Target: human GnRH receptor (Homo sapiens, UniProt P30968)
Construct: expressed in transfected cells; host or cells: HEK 293 (hGnRH-R/293, from Dr. Stuart Sealfon)
Sequence (P30968 whole entry): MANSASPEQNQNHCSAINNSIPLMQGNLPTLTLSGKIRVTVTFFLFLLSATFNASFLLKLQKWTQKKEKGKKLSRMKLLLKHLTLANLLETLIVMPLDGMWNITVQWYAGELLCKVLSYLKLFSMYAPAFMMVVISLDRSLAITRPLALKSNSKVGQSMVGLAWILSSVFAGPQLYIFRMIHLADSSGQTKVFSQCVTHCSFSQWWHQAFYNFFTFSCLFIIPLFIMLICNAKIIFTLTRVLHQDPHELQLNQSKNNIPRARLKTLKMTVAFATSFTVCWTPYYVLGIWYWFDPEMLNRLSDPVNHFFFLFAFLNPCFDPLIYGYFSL
Experiment: Radioligand binding, 125I-GnRH-A displacement, membranes of HEK 293 cells with human GnRH receptor
Details: read-out: hGnRH IC50
pIC50: −log10 of the molar value.
Metric: pIC50

[[record]]
compound = "Cc1cc2c(cc1Cc1ccc(C(=O)NCCCCCCNC(=O)c3ccc(Cc4cc5c(cc4C)C(C)(C)CCC5(C)C)o3)o1)C(C)(C)CCC2(C)C"
qualifier = "<"
val = 5.00

[[record]]
compound = "Cc1cc2c(cc1Cc1ccc(C(=O)Nc3ccc(NC(=O)OC(C)(C)C)cc3)o1)C(C)(C)CCC2(C)C"
qualifier = "<"
val = 5.00

[[record]]
compound = "COC(=O)c1ccc(OC)c(NC(=O)c2ccc(Cc3cc4c(cc3C)C(C)(C)CCC4(C)C)o2)c1"
qualifier = "="
val = 6.89

[[record]]
compound = "Cc1cc2c(cc1Cc1ccc(C(=O)NCC3CCCC(CNC(=O)C(F)(F)F)C3)o1)C(C)(C)CCC2(C)C (stereo not drawn)"
qualifier = "="
val = 7.66

[[record]]
compound = "COc1cc(OC)c(NC(=O)c2ccc(Cc3cc4c(cc3C)C(C)(C)CCC4(C)C)n2Cc2ccccc2)c(OC)c1"
qualifier = "<"
val = 5.00

[[record]]
compound = "CSc1ccccc1NC(=O)c1ccc(Cc2cc3c(cc2C)C(C)(C)CCC3(C)C)o1"
qualifier = "="
val = 6.52

[[record]]
compound = "Cc1cc2c(cc1Cc1ccc(C(=O)NCc3cccc(CNc4ncnc5scc(C)c45)c3)o1)C(C)(C)CCC2(C)C"
qualifier = "="
val = 5.52

[[record]]
compound = "Cc1cc2c(cc1Cc1ccc(C(=O)NCC3CCC(CNC(=N)N)CC3)o1)C(C)(C)CCC2(C)C (stereo not drawn)"
qualifier = "="
val = 6.66

[[record]]
compound = "CCOc1cccc(OCC)c1NC(=O)c1ccc(Cc2cc3c(cc2C)C(C)(C)CCC3(C)C)o1"
qualifier = "="
val = 7.74

[[record]]
compound = "COc1cccc(OC)c1NC(=O)c1ccc(Cc2cc(C(C)(C)C)ccc2C)o1"
qualifier = "="
val = 7.28

[[record]]
compound = "Cc1cc2c(cc1Cc1ccc(C(=O)NCc3ccc(CN)cc3)o1)C(C)(C)CCC2(C)C"
qualifier = "="
val = 6.47

[[record]]
compound = "N=C(N)NC[C@H]1CC[C@H](CNC(=O)c2ccc(Cc3ccccc3)o2)CC1"
qualifier = "<"
val = 5.00

[[record]]
compound = "Cc1cc2c(cc1Cc1ccc(C(=O)NCc3cccc(F)c3)o1)C(C)(C)CCC2(C)C"
qualifier = "="
val = 6.60

[[record]]
compound = "Cc1cc2c(cc1Cc1ccc(C(=O)NCc3ccc(CNc4nccc(NCC5CCCO5)n4)cc3)o1)C(C)(C)CCC2(C)C (stereo not drawn)"
qualifier = "="
val = 6.82

[[record]]
compound = "Cc1cc2c(cc1Cc1ccc(C(=O)NCc3nc4ccccc4[nH]3)o1)C(C)(C)CCC2(C)C"
qualifier = "="
val = 7.30

